target: Leukotriene B4 receptor (Homo sapiens, UniProt Q9NPC1+Q15722); assay: Ability to inhibit LTB4-induced chemotaxis of isolated human neutrophils.; assay type: functional
Label YES when IC50 is strictly below 200 nM; otherwise label NO.

# compound, group label
data = [
    ("O=C(O)c1ccc(Cl)cc1-c1ccc2c(c1)OC[C@H](Cc1ccccc1)[C@H]2O (stereo in doubt; 6)", "YES"),
    ("O=C(O)c1c(F)cccc1-c1ccc2c(c1)OC[C@H](Cc1ccccc1)[C@H]2O (stereo in doubt; 13)", "YES"),
    ("O=C(O)c1ccc(Cl)cc1-c1ccc2c(c1)OC[C@H](Cc1ccc3ccccc3c1)[C@H]2O", "NO"),
    ("CC(C)c1ccc(C[C@H]2COc3cc(-c4cc(F)ccc4C(=O)O)ccc3[C@@H]2O)cc1", "NO"),
    ("COC(=O)c1ccc(Cl)cc1-c1ccc2c(c1)OC[C@H](Cc1ccccc1)[C@H]2O", "NO"),
    ("O=C(O)c1ccc(C(F)(F)F)cc1-c1ccc2c(c1)OC[C@H](Cc1ccccc1)[C@H]2O (stereo in doubt; 15) [CP-195543]", "YES"),
]

----------
target: Leukotriene B4 receptor (Homo sapiens, UniProt Q9NPC1+Q15722); assay: Ability to inhibit LTB4-induced chemotaxis of isolated human neutrophils.; type: functional
Mark class 1 for IC50 under 10 nM, class 0 if at or over.

# compound, group label
rows = [
    ("O=C(O)c1c(-c2ccc3c(c2)OC[C@H](Cc2ccccc2)[C@H]3O)cccc1C(F)(F)F", "class 0"),
    ("O=C(O)c1ccc(Cl)cc1-c1ccc2c(c1)OC[C@H](Cc1ccc(-c3ccccc3)cc1)[C@H]2O (stereo in doubt; 23)", "class 0"),
    ("O=C(O)c1ccc(C(F)(F)F)cc1-c1ccc2c(c1)OC[C@H](Cc1ccc(-c3ccccc3)cc1)[C@H]2O (stereo in doubt; 27)", "class 1"),
    ("O[C@H]1c2ccc(-c3cc(F)ccc3-c3nn[nH]n3)cc2OC[C@@H]1Cc1ccccc1", "class 0"),
    ("OCc1ccc(C(F)(F)F)cc1-c1ccc2c(c1)OC[C@H](Cc1ccccc1)[C@H]2O", "class 1"),
    ("O=C(O)c1ccc(Cl)cc1-c1ccc2c(c1)OC[C@H](Cc1ccc(C(F)(F)F)cc1)[C@H]2O", "class 0"),
    ("O=C(O)c1ccc(C(F)(F)F)cc1-c1ccc2c(c1)OC[C@H](Cc1ccccc1)[C@H]2O (stereo in doubt; 16) [CP-195543]", "class 1"),
]

----------
target: Leukotriene B4 receptor (Homo sapiens, UniProt Q9NPC1+Q15722); experiment: Ability to inhibit LTB4-induced CD11b up-regulation on isolated human neutrophils in whole blood; format: functional, tissue-based
Listed next: entries and their corresponding IC50.
measured metric: IC50 (µM)

# molecule, measured metric, value qualifier, observed result
data = [
    ("O=C(O)c1ccc(F)cc1-c1ccc2c(c1)OC[C@H](Cc1ccc(-c3ccccc3)cc1)[C@H]2O (stereo in doubt; 25)", "IC50", "=", 5.1),
    ("O=C(O)c1ccc(C(F)(F)F)cc1-c1ccc2c(c1)OC[C@H](Cc1ccc(-c3ccccc3)cc1)[C@H]2O (stereo in doubt; 27)", "IC50", "=", 4),
    ("O=C(O)c1c(-c2ccc3c(c2)OC[C@H](Cc2ccccc2)[C@H]3O)cccc1C(F)(F)F", "IC50", "=", 0.89),
    ("O=C(O)c1ccc(F)cc1-c1ccc2c(c1)OC[C@H](Cc1ccccc1)[C@H]2O (stereo in doubt; 10)", "IC50", "=", 3.5),
    ("O=C(O)c1ccc(Cl)cc1-c1ccc2c(c1)OC[C@H](Cc1ccc(-c3ccccc3)cc1)[C@H]2O (stereo in doubt; 23)", "IC50", "=", 3.9),
    ("O=S(=O)(Nc1ccc(F)cc1-c1ccc2c(c1)OC[C@H](Cc1ccccc1)[C@H]2O)C(F)(F)F (stereo in doubt; 39)", "IC50", ">", 3),
    ("O=C(O)c1ccc(C(F)(F)F)cc1-c1ccc2c(c1)OC[C@H](Cc1ccc(-c3ccccc3)cc1)[C@H]2O (stereo in doubt; 26)", "IC50", "=", 1.9),
    ("O=S(=O)(Nc1ccc(F)cc1-c1ccc2c(c1)OC[C@H](Cc1ccccc1)[C@H]2O)C(F)(F)F (stereo in doubt; 38)", "IC50", "=", 0.33),
]

----------
molecular target: Leukotriene B4 receptor (Homo sapiens, UniProt Q9NPC1+Q15722); experiment: Ability to inhibit LTB4 binding to LTB receptors on isolated human neutrophils.; type: protein assay

# molecule, IC50 [µM]
rows = [
    ("O=C(O)c1ccc(Cl)cc1-c1ccc2c(c1)OC[C@H](Cc1ccc(-c3ccccc3)cc1)[C@H]2O (stereo in doubt; 22)", 0.004),
    ("O=C(O)c1ccc(Cl)cc1-c1ccc2c(c1)OC[C@H](Cc1ccc3ccccc3c1)[C@H]2O", 0.1),
    ("O=C(O)c1ccc(F)cc1-c1ccc2c(c1)OC[C@H](Cc1ccccc1)[C@H]2O (stereo in doubt; 9)", 0.003),
    ("O=C(O)c1ccc(Cl)cc1-c1ccc2c(c1)OC[C@H](Cc1ccc(F)cc1)[C@H]2O", 0.054),
    ("O=C(O)c1ccc(Cl)cc1-c1ccc2c(c1)OC[C@H](Cc1ccc(-c3ccccc3)cc1)[C@H]2O (stereo in doubt; 23)", 0.008),
    ("O=C(O)c1c(F)cccc1-c1ccc2c(c1)OC[C@H](Cc1ccccc1)[C@H]2O (stereo in doubt; 14)", 0.24),
    ("O=C(O)c1ccc(C(F)(F)F)cc1-c1ccc2c(c1)OC[C@H](Cc1ccccc1)[C@H]2O (stereo in doubt; 17) [CP-195543]", 0.056),
]

----------
target: Leukotriene B4 receptor (Cavia porcellus); assay: Compound was evaluated for its ability to inhibit [3H]LTB4 binding to LTB4 receptors on guinea pig spleen membranes
Reported IC50 values for a set of compounds

# compound, tested on, unit descriptor, value qualifier, IC50
data = [
    ("COc1ccc(C(=O)O)c(-c2ccc3c(c2)OC[C@H](Cc2ccccc2)[C@H]3O)c1", "Leukotriene B4 receptor (Cavia porcellus)", "µM", "=", 0.16),
    ("O=C(O)c1ccc(C(=O)O)c(-c2ccc3c(c2)OC[C@H](Cc2ccccc2)[C@H]3O)c1", "Leukotriene B4 receptor (Cavia porcellus)", "µM", ">", 1),
    ("O=C(O)c1ccc(Cl)cc1-c1ccc2c(c1)OC[C@H](Cc1ccccc1)[C@H]2O (stereo in doubt; 5)", "Leukotriene B4 receptor (Cavia porcellus)", "µM", "=", 0.059),
    ("CNC(=O)c1ccc(C(=O)O)c(-c2ccc3c(c2)OC[C@H](Cc2ccccc2)[C@H]3O)c1", "Leukotriene B4 receptor (Cavia porcellus)", "µM", "=", 4.7),
    ("O=C(O)c1ccccc1-c1ccc2c(c1)OC[C@H](Cc1ccccc1)[C@H]2O", "Leukotriene B4 receptor (Cavia porcellus)", "µM", "=", 0.12),
]

----------
biological target: Leukotriene B4 receptor (Homo sapiens, UniProt Q9NPC1+Q15722); assay: Ability to inhibit LTB4 binding to LTB receptors on isolated human neutrophils.; type: protein assay
Note to self: IC50 under 40 nM means True, ties and anything higher get False.

# compound, group label
measured = [
    ("O=C(O)c1ccc(Cl)cc1-c1ccc2c(c1)OC[C@H](Cc1ccccc1)[C@H]2O (stereo in doubt; 7)", "False"),
    ("O=C(O)c1ccc(C(F)(F)F)cc1-c1ccc2c(c1)OC[C@H](Cc1ccccc1)[C@H]2O (stereo in doubt; 16) [CP-195543]", "True"),
    ("O=C(O)c1ccc(F)cc1-c1ccc2c(c1)OC[C@H](Cc1ccc(C(F)(F)F)cc1)[C@H]2O", "False"),
    ("COC(=O)c1ccc(Cl)cc1-c1ccc2c(c1)OC[C@H](Cc1ccccc1)[C@H]2O", "False"),
    ("O=C(O)c1ccc(F)cc1-c1ccc2c(c1)OC[C@H](Cc1ccc(-c3ccccc3)cc1)[C@H]2O (stereo in doubt; 24)", "True"),
    ("O=C(O)c1c(F)cccc1-c1ccc2c(c1)OC[C@H](Cc1ccccc1)[C@H]2O (stereo in doubt; 12)", "True"),
    ("O=C(O)c1ccc(C(F)(F)F)cc1-c1ccc2c(c1)OC[C@H](Cc1ccc(-c3ccccc3)cc1)[C@H]2O (stereo in doubt; 26)", "True"),
    ("O=C(O)c1ccc(F)cc1-c1ccc2c(c1)OC[C@H](CCc1ccccc1)[C@H]2O", "True"),
]

----------
target: Leukotriene B4 receptor (Homo sapiens, UniProt Q9NPC1+Q15722); test: Ability to inhibit LTB4-induced chemotaxis of isolated human neutrophils.; format: functional

# compound, IC50
rows = [
    ("O=C(O)c1ccc(Cl)cc1-c1ccc2c(c1)OC[C@H](Cc1ccccc1)[C@H]2O (stereo in doubt; 5)", "0.026 µM"),
    ("O=C(O)c1ccc(C(F)(F)F)cc1-c1ccc2c(c1)OC[C@H](Cc1ccc(-c3ccccc3)cc1)[C@H]2O (stereo in doubt; 26)", "0.006 µM"),
    ("O=C(O)c1ccc(F)cc1-c1ccc2c(c1)OC[C@H](Cc1ccc(C(F)(F)F)cc1)[C@H]2O", "1.8 µM"),
    ("O=C(O)c1ccc(F)cc1-c1ccc2c(c1)OC[C@H](Cc1ccc(-c3ccccc3)cc1)[C@H]2O (stereo in doubt; 24)", "0.056 µM"),
]
